Taken from ChEMBL document CHEMBL1138323.

- Organism: Mus musculus
- ASSAY DETAILS: Protective index, ratio of TD50 for Albino CF1 mouse to ED50 for Albino CF1 mouse by 6-Hz psychomotor seizure test at 32 mA current
- Type: functional
QUANTITY MEASURED: Ratio TD50/ED50

# COMPOUND, QUANTITY MEASURED, RESULT
rows = [
    ("CCC(C)C(CC)C(=O)NC(N)=O (configuration not stated) [CAPURIDE]", "Ratio TD50/ED50", "<4.7"),
    ("CCC[C@@H](C(=O)NC(N)=O)C(C)C", "Ratio TD50/ED50", 2.7),
    ("CC(C)C(C(=O)NC(N)=O)C(C)C", "Ratio TD50/ED50", "<2.3"),
    ("CCC[C@H](C(=O)NC(N)=O)C(C)C", "Ratio TD50/ED50", "<6.5"),
    ("CCCC(C(=O)O)C(C)C (racemic)", "Ratio TD50/ED50", ">2"),
    ("CCCC(C(=O)NC(N)=O)C(C)C (racemic)", "Ratio TD50/ED50", "<2"),
    ("CCCC(CCC)C(=O)NC(N)=O", "Ratio TD50/ED50", "<1.7"),
]
